biological target: A2a receptor cell membrane (human origin) (Homo sapiens); construct: purchased PerkinElmer RBHA2AM400UA; test: Competitive inhibition constant (Ki) for adenosine A2a receptor, [3H]-CGS-21680 radioligand binding; conditions: selectivity ratio A1 over A2a
Sequence (P29274 whole entry): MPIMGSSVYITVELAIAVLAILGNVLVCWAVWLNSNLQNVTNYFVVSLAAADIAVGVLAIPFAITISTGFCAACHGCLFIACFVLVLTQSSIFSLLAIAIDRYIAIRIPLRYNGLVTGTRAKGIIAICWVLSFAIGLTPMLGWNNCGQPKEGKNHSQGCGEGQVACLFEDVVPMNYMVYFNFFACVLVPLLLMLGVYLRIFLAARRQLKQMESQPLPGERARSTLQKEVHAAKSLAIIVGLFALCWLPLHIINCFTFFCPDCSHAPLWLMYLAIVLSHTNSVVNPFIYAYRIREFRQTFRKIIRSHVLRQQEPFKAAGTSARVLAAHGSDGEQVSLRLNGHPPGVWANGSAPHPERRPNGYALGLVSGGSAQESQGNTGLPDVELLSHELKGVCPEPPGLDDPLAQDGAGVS
Entries and their Ki(A1)/Ki(A2a) values follow.
reported.metric: Ki(A1)/Ki(A2a)

1) Cc1ncnc2ccc(-c3cc(C#N)c(N)nc3-c3ccc(F)cc3)cc12 ... 325.3
2) Cc1ccnc2ccc(-c3cc(C(N)=O)c(N)nc3-c3ccc(F)cc3)cc12 ... 66.3
3) Cc1ncnc2ccc(-c3cc(-c4cnn(CC(C)(C)O)c4)c(N)nc3-c3ccc(F)cc3)cc12 ... 108.0
4) COC(=O)c1cc(-c2ccc3ncnc(C)c3c2)c(-c2ccc(F)cc2)nc1N ... 222.8
5) COCCn1cc(-c2cc(-c3ccc4ncnc(C)c4c3)c(-c3ccc(F)cc3)nc2N)cn1 ... 137.3
6) Cc1ncnc2ccc(-c3cc(C(=O)O)c(N)nc3-c3ccc(F)cc3)cc12 ... 293.5
7) Cc1ccnc2ccc(-c3cc(-c4nnc(C(N)=O)o4)c(N)nc3-c3ccc(F)cc3)cc12 ... 25.0
8) Cc1ncnc2ccc(-c3cc(-c4cnn(C)c4)c(N)nc3-c3ccc(F)cc3)cc12 ... 148.5
9) CNC(=O)c1cc(-c2ccc3ncnc(C)c3c2)c(-c2ccc(F)cc2)nc1N ... 245.0
10) Cc1ncnc2ccc(-c3c(Cl)cc(N)nc3-c3ccc(F)cc3)cc12 ... 219.0
11) NC(=O)c1cc(-c2ccncc2)c(-c2cccc(F)c2)nc1N [Control compound 1, reference compound] ... 0.2
12) Cc1ncnc2ccc(-c3cc(-c4cnn(CCC(N)=O)c4)c(N)nc3-c3ccc(F)cc3)cc12 ... 68.8
13) Cc1ncnc2ccc(-c3c(C#N)cc(N)nc3-c3ccc(F)cc3)cc12 ... 146.5
14) Cc1ncnc2ccc(-c3cc(C(N)=O)c(N)nc3-c3ccc(F)cc3)cc12 ... 644.6
15) Cc1ccnc2ccc(-c3cc(-c4cnn(CCC(N)=O)c4)c(N)nc3-c3ccc(F)cc3)cc12 ... 91.0
16) Cc1ncnc2ccc(-c3cc(-n4cc(C(N)=O)cn4)c(N)nc3-c3ccc(F)cc3)cc12 ... 150.0
17) Cc1ncnc2ccc(-c3cc(C(N)=O)c(N)nc3-c3cc(F)cc(F)c3)cc12 ... 54.9
18) Cc1ncnc2ccc(-c3cc(C(N)=O)c(N)nc3-c3ccccc3F)cc12 ... 359.0
19) Cc1ncnc2ccc(-c3cc(-c4nnc(C(N)=O)o4)c(N)nc3-c3ccc(F)cc3)cc12 ... 57.6
20) Cc1ncnc2ccc(-c3cc(Br)c(N)nc3-c3ccc(F)cc3)cc12 ... 112.1
21) CNC(=O)Cn1cc(-c2cc(-c3ccc4ncnc(C)c4c3)c(-c3ccc(F)cc3)nc2N)cn1 ... 51.8
22) Cc1ncnc2ccc(-c3cc(-c4nnn[nH]4)c(N)nc3-c3ccc(F)cc3)cc12 ... 85.3
23) Cc1ncnc2ccc(-c3cc(-c4cnn(CCN(C)C)c4)c(N)nc3-c3ccc(F)cc3)cc12 ... 82.6
24) Cc1ncnc2ccc(-c3ccc(N)nc3-c3ccc(F)cc3)cc12 ... 339.0
25) Cc1cc(-c2cc(-c3cnn(CCC(N)=O)c3)c(N)nc2-c2ccc(F)cc2)cc(Cl)n1 ... 38.0

----------
assay: Pharmacokinetics in rats, intravenous injection (IV); type: in vivo; conditions: male, SD, rat, 1 mg/kg, plasma
reported.metric: log10 AUC(0-t) (log10 of the value in ng·h/mL)

1. Cc1ncnc2ccc(-c3cc(C(N)=O)c(N)nc3-c3ccc(F)cc3)cc12 ... 3.82
2. Cc1ncnc2ccc(-c3cc(-c4cnn(CC(C)(C)O)c4)c(N)nc3-c3ccc(F)cc3)cc12 ... 3.37
3. Cc1ncnc2ccc(-c3nnc(N)nc3-c3ccc(F)cc3)cc12 [Control compound 2, reference compound] ... 2.71
4. CNC(=O)Cn1cc(-c2cc(-c3ccc4ncnc(C)c4c3)c(-c3ccc(F)cc3)nc2N)cn1 ... 3.60
5. Cc1ncnc2ccc(-c3cc(-c4cnn(CCC(N)=O)c4)c(N)nc3-c3ccc(F)cc3)cc12 ... 3.40

----------
experiment: Pharmacokinetics and brain tissue distribution in rats, intragastric administration (PO); assay type: in vivo, male SD rats; conditions: rat, PO, 5 mg/kg, brain tissue homogenate
reported.metric: AUClast (brain)

1) Cc1ncnc2ccc(-c3cc(-c4cnn(CC(C)(C)O)c4)c(N)nc3-c3ccc(F)cc3)cc12 [Compound 21] ... 24.2 (h*ng/g,
2) CNC(=O)Cn1cc(-c2cc(-c3ccc4ncnc(C)c4c3)c(-c3ccc(F)cc3)nc2N)cn1 [Compound 19] ... 24.2 (h*ng/g,
3) Cc1ncnc2ccc(-c3cc(C(N)=O)c(N)nc3-c3ccc(F)cc3)cc12 [Compound 6] ... 337 (h*ng/g,
4) Cc1ncnc2ccc(-c3nnc(N)nc3-c3ccc(F)cc3)cc12 [Control compound 2, reference compound] ... 1013 (h*ng/g,

----------
Protein target, amino acids: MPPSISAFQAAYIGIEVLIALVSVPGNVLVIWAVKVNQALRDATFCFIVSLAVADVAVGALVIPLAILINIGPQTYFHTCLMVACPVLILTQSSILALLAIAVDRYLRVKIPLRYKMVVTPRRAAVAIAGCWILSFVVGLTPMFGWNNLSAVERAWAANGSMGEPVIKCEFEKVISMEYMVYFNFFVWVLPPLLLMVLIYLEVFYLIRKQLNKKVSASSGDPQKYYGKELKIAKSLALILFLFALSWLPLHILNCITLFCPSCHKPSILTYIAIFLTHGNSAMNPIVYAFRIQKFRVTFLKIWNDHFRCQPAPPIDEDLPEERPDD
pKi: −log10 of the molar value.
reported.metric: pKi

1. NC(=O)c1cc(-c2ccncc2)c(-c2cccc(F)c2)nc1N [Control compound 1, reference compound] ... 7.59
2. Cc1ncnc2ccc(-c3cc(Br)c(N)nc3-c3ccc(F)cc3)cc12 [Compound 2] ... 6.54
3. Cc1ncnc2ccc(-c3cc(-c4cnn(CCN(C)C)c4)c(N)nc3-c3ccc(F)cc3)cc12 [Compound 16] ... 5.86
4. CNC(=O)Cn1cc(-c2cc(-c3ccc4ncnc(C)c4c3)c(-c3ccc(F)cc3)nc2N)cn1 [Compound 19] ... 6.29

----------
Experiment: Pharmacokinetics and brain tissue distribution in rats, intragastric administration (PO)
Type: in vivo, male SD rats
Conditions: male, SD; rat, PO, 5 mg/kg, plasma; read-out: AUClast (plasma)
Procedure: Experimental Example 2: Pharmacokinetics (PK) and Brain Tissue Distribution Study in Rats The compounds of the present invention and control compound 2 were administered to male SD rats by intravenous injection (IV) and intragastric administration (PO) respectively to study the pharmacokinetic characteristics. […] synthesized according to the prior art process) were administered by IV and PO. […] The pharmacokinetic parameters were calculated by using non-compartmental model with WinNonlin 6.3 software.
reported.metric: log10 AUC(0-t) (log10 of the value in ng·h/mL)

1) Cc1ncnc2ccc(-c3cc(-c4cnn(CC(C)(C)O)c4)c(N)nc3-c3ccc(F)cc3)cc12 ... 3.90
2) Cc1ncnc2ccc(-c3cc(C(N)=O)c(N)nc3-c3ccc(F)cc3)cc12 ... 4.39
3) Cc1ncnc2ccc(-c3cc(-c4cnn(CCC(N)=O)c4)c(N)nc3-c3ccc(F)cc3)cc12 ... 3.28
4) CNC(=O)Cn1cc(-c2cc(-c3ccc4ncnc(C)c4c3)c(-c3ccc(F)cc3)nc2N)cn1 ... 4.27
5) Cc1ncnc2ccc(-c3nnc(N)nc3-c3ccc(F)cc3)cc12 [Control compound 2, reference compound] ... 3.08

----------
Entries and their bioavailability values follow.
assay: Pharmacokinetics and brain tissue distribution in rats, intragastric administration (PO); type: in vivo, male SD rats; conditions: male, SD, plasma, po; rat, orally administered 5 mg/kg compared to intravenous 1 mg/kg
reported.metric: bioavailability (%)

1. CNC(=O)Cn1cc(-c2cc(-c3ccc4ncnc(C)c4c3)c(-c3ccc(F)cc3)nc2N)cn1 ... 95.2
2. Cc1ncnc2ccc(-c3nnc(N)nc3-c3ccc(F)cc3)cc12 [Control compound 2, reference compound] ... 46.5
3. Cc1ncnc2ccc(-c3cc(-c4cnn(CC(C)(C)O)c4)c(N)nc3-c3ccc(F)cc3)cc12 ... 68.5
4. Cc1ncnc2ccc(-c3cc(C(N)=O)c(N)nc3-c3ccc(F)cc3)cc12 ... 73.9

----------
Entries and their pKi values follow.
biological target: A2a receptor cell membrane (human origin) (Homo sapiens); construct: purchased PerkinElmer RBHA2AM400UA; experiment: Competitive inhibition constant (Ki) for adenosine A2a receptor, [3H]-CGS-21680 radioligand binding; settings: human A2a receptor cell membrane, [3H]-CGS-21680 6.0 nM; read-out: Ki(A2a)
pKi: −log10 of the molar value.
reported.metric: pKi

1. Cc1ncnc2ccc(-c3cc(-c4nnc(C(N)=O)o4)c(N)nc3-c3ccc(F)cc3)cc12 ... 8.64
2. Cc1ncnc2ccc(-c3cc(C(N)=O)c(N)nc3-c3ccc(F)cc3)cc12 ... 8.47
3. Cc1ncnc2ccc(-c3cc(C(N)=O)c(N)nc3-c3ccccc3F)cc12 ... 7.91
4. Cc1ncnc2ccc(-c3cc(C#N)c(N)nc3-c3ccc(F)cc3)cc12 ... 8.68
